Ref: patent US10294212B2

Examples of compounds with documented pIC50 follow.
Biological target: Human TDO (hTDO)-transfected CHO-K1 cells (Homo sapiens (Human))
Sequence (P48775 whole entry): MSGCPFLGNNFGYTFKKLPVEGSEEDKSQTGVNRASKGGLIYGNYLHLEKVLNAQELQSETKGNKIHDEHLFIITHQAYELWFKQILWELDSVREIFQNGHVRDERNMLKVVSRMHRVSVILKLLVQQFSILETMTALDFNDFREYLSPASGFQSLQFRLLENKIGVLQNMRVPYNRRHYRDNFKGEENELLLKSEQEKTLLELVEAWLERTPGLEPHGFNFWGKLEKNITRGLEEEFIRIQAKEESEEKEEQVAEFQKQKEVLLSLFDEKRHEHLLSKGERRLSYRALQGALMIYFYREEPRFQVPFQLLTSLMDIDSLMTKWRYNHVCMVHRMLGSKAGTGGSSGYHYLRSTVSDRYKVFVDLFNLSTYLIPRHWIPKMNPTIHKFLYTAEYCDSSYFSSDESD
Experiment: CHO-K1 cell based TDO assay
Details: hTDO cellular assay
pIC50: −log10 of the molar value.
READOUT LABEL: pIC50

> print(dat)
                     structure.smiles.string  readout.label  measured.value
 1  Nc1oc2c(-c3ccccc3Cl)nccc2c1Nc1ccc(F)c(F)c1          pIC50          > 6.30
 2         Cc1cccc(Nc2c(N)oc3cc(C#N)ccc23)c1          pIC50          < 5.70
 3  CCOC(=O)Nc1oc2c(-c3ccnc(C)c3)nccc2c1N(C(=O)OCC)c1ccc(F)c(Cl)c1          pIC50          < 5.70
 4  COc1cc2c(Nc3ccc(F)c(Cl)c3)c(N)oc2c(-c2ccc(F)cc2)n1          pIC50    5.70 to 6.30
 5         Nc1oc2cnccc2c1Nc1cc(F)c(F)c(Br)c1          pIC50          < 5.70
 6  Cc1cc(-c2nccc3c(Nc4ccc(F)c(C(F)(F)F)c4)c(N)oc23)ccn1          pIC50    5.70 to 6.30
 7     CCCc1nccc2c(Nc3ccc(F)c(Cl)c3)c(N)oc12          pIC50          < 5.70
 8         CC(=O)c1ccc(Nc2c(N)oc3cnccc23)cc1          pIC50    5.70 to 6.30
 9            Nc1oc2cnc(F)cc2c1Nc1cccc(Cl)c1          pIC50          > 6.30
10   Cc1cc(-c2cccc3c(Nc4ccccc4)c(N)sc23)ccn1          pIC50    5.70 to 6.30
11   CCc1nccc2c(Nc3cccc(C(F)(F)F)c3)c(N)oc12          pIC50    5.70 to 6.30
12              Cc1ccc(Nc2c(N)oc3cnccc23)cc1          pIC50    5.70 to 6.30
13  Nc1oc2c(/C=C/c3ccccc3)nccc2c1Nc1ccc(F)c(Cl)c1          pIC50    5.70 to 6.30
14                Nc1oc2cnccc2c1Nc1ccc(F)cc1          pIC50    5.70 to 6.30
15  CCOC(=O)Nc1oc2c(-c3ccncc3)nccc2c1N(C(=O)OCC)c1ccc(F)c(C(F)(F)F)c1          pIC50          < 5.70
16            Nc1oc2cnccc2c1Nc1ccc(F)c(Br)c1          pIC50          > 6.30
17  CCOC(=O)Nc1oc2c(C#N)nccc2c1N(C(=O)OCC)c1ccc(F)c(Cl)c1          pIC50          < 5.70
18          Nc1oc2cnc(F)cc2c1Nc1ccc(F)c(F)c1          pIC50          > 6.30
19     Nc1sc2ccccc2c1Nc1ccc(Cl)c(C(F)(F)F)c1          pIC50          < 5.70
20            Nc1oc2cnccc2c1Nc1ccc(F)c(Cl)c1          pIC50    5.70 to 6.30

---

// endpoint pIC50 / system Human indoleamine 2,3-dioxygenase1 (hIDO1) (Homo sapiens (Human))
pIC50: −log10 of the molar value.
READOUT LABEL: pIC50

> print(dat)
                     structure.smiles.string  measured.value
 1  CCCCOc1cc2c(Nc3ccc(F)c(Cl)c3)c(N)oc2c(-c2ccccc2)n1          < 6.00
 2         Nc1oc2cnccc2c1Nc1cccc(C2CCCCC2)c1          < 6.00
 3  Nc1oc2c(-c3ccnc(C(=O)Nc4ccccn4)c3)nccc2c1Nc1ccc(F)c(Cl)c1          > 6.70
 4             Cc1cccc(Nc2c(N)sc3ccccc23)c1C          < 6.00
 5               Nc1oc2cnccc2c1Nc1cncc(Cl)c1          < 6.00
 6  Cc1cc(-c2nccc3c(Nc4cccc(Cl)c4F)c(N)oc23)ccn1    6.00 to 6.70
 7        N#Cc1ccc2c(Nc3cccc(Br)c3)c(N)oc2c1          > 6.70
 8  Nc1oc2c(-c3ccncc3)nccc2c1Nc1cc(F)cc(F)c1    6.00 to 6.70
 9          Nc1oc2cnc(F)cc2c1Nc1ccc(F)c(F)c1          > 6.70
10  Cc1cc(-c2nccc3c(Nc4ccc(F)cc4)c(N)oc23)ccn1          > 6.70
11           Nc1oc2cnccc2c1Nc1cccc(CC2CC2)c1          < 6.00
12  CC(C)Oc1cc2c(Nc3ccc(F)c(Cl)c3)c(N)oc2c(-c2ccccc2)n1          < 6.00
13  Nc1oc2c(-c3ccncc3)nc(F)cc2c1Nc1ccc(F)c(Cl)c1          > 6.70
14  Nc1oc2c(N(c3ccccc3)c3ccccc3)nccc2c1Nc1ccc(F)c(Cl)c1    6.00 to 6.70
15  N#Cc1nccc2c(Nc3ccc(F)c(C(F)(F)F)c3)c(N)oc12          > 6.70
16         Nc1oc2cnccc2c1Nc1ccc(C(F)(F)F)cc1          < 6.00
17  Nc1oc2c(-c3ccnc(C(=O)N4CCCCC4)c3)nccc2c1Nc1ccc(F)c(Cl)c1          > 6.70
18              Nc1oc2cnccc2c1Nc1ccc(F)cc1Cl          < 6.00
19  CC(C)(C)c1cc(Nc2c(N)oc3cnccc23)cc(C(C)(C)C)c1          < 6.00

---

Examples of compounds with documented pIC50 follow.
Biological target: IDO1 in HeLa cells (Homo sapiens (Human), UniProt P14902)
Assay: HeLa cell based IDO1 assay (IFNγ-induced, KYN in supernatant)
pIC50: −log10 of the molar value.
READOUT LABEL: pIC50

> print(dat)
                     structure.smiles.string  readout.label  measured.value
 1         Nc1oc2cnccc2c1Nc1cccc(C(F)(F)F)c1          pIC50          > 6.70
 2          CC(C)c1cccc(Nc2c(N)oc3cnccc23)c1          pIC50          > 6.70
 3  NC(=O)c1ccc(-c2nccc3c(Nc4ccc(F)c(Cl)c4)c(N)oc23)cc1          pIC50          > 6.70
 4            Nc1oc2cnc(F)cc2c1Nc1cccc(Cl)c1          pIC50          > 6.70
 5           COc1ccc(Cl)cc1Nc1c(N)oc2cnccc12          pIC50    6.00 to 6.70
 6            Nc1sc2ccccc2c1Nc1ccc2c(c1)OCO2          pIC50          > 6.70
 7  Nc1oc2cc([N+](=O)[O-])ccc2c1Nc1ccc(F)c(Cl)c1          pIC50          > 6.70
 8        Nc1sc2ccc(Br)cc2c1Nc1ccc(F)c(Cl)c1          pIC50    6.00 to 6.70
 9        N#Cc1ccc2c(Nc3cccc(Br)c3)c(N)oc2c1          pIC50          > 6.70
10         C#Cc1cccc(Nc2c(N)oc3c(C)nccc23)c1          pIC50          > 6.70

---

Molecular target: Human indoleamine 2,3-dioxygenase1 (hIDO1) (Homo sapiens (Human))
Sequence (P14902 whole entry): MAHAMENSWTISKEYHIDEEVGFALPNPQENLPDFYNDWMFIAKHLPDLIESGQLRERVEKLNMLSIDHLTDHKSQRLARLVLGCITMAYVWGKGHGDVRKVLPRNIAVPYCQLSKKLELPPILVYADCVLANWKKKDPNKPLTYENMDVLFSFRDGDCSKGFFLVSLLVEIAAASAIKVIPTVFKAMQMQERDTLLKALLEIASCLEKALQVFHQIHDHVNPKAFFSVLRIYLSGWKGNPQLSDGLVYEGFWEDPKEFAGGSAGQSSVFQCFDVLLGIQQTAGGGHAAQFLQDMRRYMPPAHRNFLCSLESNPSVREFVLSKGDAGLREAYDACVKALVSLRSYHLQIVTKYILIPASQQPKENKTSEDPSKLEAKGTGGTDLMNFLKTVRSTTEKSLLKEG
Experiment: In-vitro IDO1 enzyme assay (conversion of L-tryptophan to KYN)
Assay type: biochemical
Conditions: read-out: IC50 (IDO1) Enz
READOUT LABEL: IC50

> print(dat)
                    structure.smiles.string                               test.target  readout.label  measured.value
1     Nc1oc2cnccc2c1Nc1ccc(F)c(OC(F)(F)F)c1  Human indoleamine 2,3-dioxygenase1 (hIDO1) (Homo sapiens (Human))           IC50  200 to 1000 nM
2  Nc1oc2c(-c3cccc(Cl)c3)nccc2c1Nc1ccc(F)c(Cl)c1  Human indoleamine 2,3-dioxygenase1 (hIDO1) (Homo sapiens (Human))           IC50        < 200 nM
3   Nc1oc2c[n+]([O-])ccc2c1Nc1ccc(F)c(Cl)c1  Human indoleamine 2,3-dioxygenase1 (hIDO1) (Homo sapiens (Human))           IC50  200 to 1000 nM
4     N#Cc1ccc2c(Nc3ccc(F)c(Cl)c3)c(N)oc2c1  Human indoleamine 2,3-dioxygenase1 (hIDO1) (Homo sapiens (Human))           IC50        < 200 nM
5            Nc1oc2cnccc2c1Nc1cc(F)c(F)cc1F  Human indoleamine 2,3-dioxygenase1 (hIDO1) (Homo sapiens (Human))           IC50       > 1000 nM
6        Nc1oc2c(Br)nccc2c1Nc1ccc(F)c(Cl)c1  Human indoleamine 2,3-dioxygenase1 (hIDO1) (Homo sapiens (Human))           IC50        < 200 nM
7  Nc1sc2ccc(Cl)cc2c1Nc1ccc(F)c(C(F)(F)F)c1  Human indoleamine 2,3-dioxygenase1 (hIDO1) (Homo sapiens (Human))           IC50  200 to 1000 nM
8  CCOC(=O)Nc1oc2c(-c3ccnc(C)c3)nccc2c1N(C(=O)OCC)c1ccc(F)c(Cl)c1  Human indoleamine 2,3-dioxygenase1 (hIDO1) (Homo sapiens (Human))           IC50       > 1000 nM
9  Nc1oc2c(-c3ccncc3)nccc2c1Nc1cccc(C(F)(F)F)c1  Human indoleamine 2,3-dioxygenase1 (hIDO1) (Homo sapiens (Human))           IC50        < 200 nM
